# Lookup of reported Pre-emergence action against MATIN in % keyed by entry
# Tested on: MATIN
# assay summary: Pre-emergence herbicidal action against MATIN
# Assay type: in vivo, Matricaria inodora
# experimental context: 1280 g/ha, scored visually after about 3 weeks vs untreated controls
Unit % implied. Number only.

Worked cases, Pre-emergence action against MATIN in % given:
C#Cc1c(OCC(=O)OC)nn(-c2cccc(F)c2)c1-c1cccc(F)c1 [I-069] yielded Pre-emergence action against MATIN in % of 90

CCOC(=O)COc1nn(-c2ccccc2)c(-c2ccc(F)cc2)c1Br [I-056] yielded Pre-emergence action against MATIN in % of 90

COC(=O)COc1nn(-c2cccc(F)c2)c(-c2ccccc2)c1C#N [I-023] yielded Pre-emergence action against MATIN in % of 100

COC(=O)C(C)Oc1nn(-c2cccc(F)c2)c(-c2cccc(F)c2)c1C#N (stereo not shown) [I-067] yielded Pre-emergence action against MATIN in % of 90

COC(=O)COc1nn(-c2ccccc2F)c(-c2ccccc2)c1Cl [I-015] yielded Pre-emergence action against MATIN in % of 90

Could you now look at the following compound, please?
COC(=O)COc1nn(-c2ccccc2)c(-c2cccc(F)c2)c1C#N [I-021] yielded Pre-emergence action against MATIN in % of 90
